- Test system: c-Src
- experimental protocol: phosphorylation enrichment, bacterial display (enrichment ratio); higher = better substrate or ligand; peptides without Tyr show the background
measurement type: phosphorylation enrichment

{"columns": ["sequence content", "quantitative result"],
 "data": [
  ["SRDDFYETIAM [NPY1R_Y347_D346Y_YF]", 1.06],
  ["FVSLIYTNFEA [GSTP1_Y109_I105V_YF]", 5.94],
  ["SIKDKHVTALY [KCNH2_Y611_Y611H]", 0.44],
  ["IIAVHYVLEES [RYR2_Y4559]", 0.488],
  ["RTLIRYANLGN [BEST1_Y131]", 0.685],
  ["NRLTDYFEPLL [BBS10_Y536_YF]", 0.406],
  ["PTYEHYANSTQ [SLC12A3_Y70]", 5.29],
  ["DSSIRYLQEIF [FGG_Y135_YF]", 0.497],
  ["TENAGYFFRIS", 0.514],
  ["VTVLDYDKTGK [SYT1_Y365_I368T]", 0.398],
  ["EQKKFYNAMKN [SCN5A_Y1495_K1500N_YF]", 0.409],
  ["ADFFDYGHGLS [KHDRBS3_Y304_YF]", 0.449],
  ["TVSTGYTQPQP [SARG_Y259_R258G]", 0.479],
  ["KENITYMKSEQ [L1TD1_Y24_R27S]", 0.425],
  ["RVLKLYGCSPS [ASTL_Y279]", 0.516],
  ["VGTKRYMALEV [ACVRL1_Y375_P378L]", 0.486],
  ["TQFWRYFAGNL [SLC25A5_Y112_L111R]", 0.489],
  ["PPPELYFVKVD [TERT_Y707]", 1.55],
  ["GEDLSYGDVPP [IRS1_Y151]", 0.482],
  ["ARKRKYFKKHE [NFIX_Y40]", 0.56],
  ["NQDRTYFERVR [SPEN_Y632_S635R_YF]", 0.567],
  ["RQNNSYTCYTA [SLC20A2_Y386_R382Q]", 0.915]
]}

---

- study target: Fyn (UniProt P06241)
- Sequence (P06241 whole entry, looked up): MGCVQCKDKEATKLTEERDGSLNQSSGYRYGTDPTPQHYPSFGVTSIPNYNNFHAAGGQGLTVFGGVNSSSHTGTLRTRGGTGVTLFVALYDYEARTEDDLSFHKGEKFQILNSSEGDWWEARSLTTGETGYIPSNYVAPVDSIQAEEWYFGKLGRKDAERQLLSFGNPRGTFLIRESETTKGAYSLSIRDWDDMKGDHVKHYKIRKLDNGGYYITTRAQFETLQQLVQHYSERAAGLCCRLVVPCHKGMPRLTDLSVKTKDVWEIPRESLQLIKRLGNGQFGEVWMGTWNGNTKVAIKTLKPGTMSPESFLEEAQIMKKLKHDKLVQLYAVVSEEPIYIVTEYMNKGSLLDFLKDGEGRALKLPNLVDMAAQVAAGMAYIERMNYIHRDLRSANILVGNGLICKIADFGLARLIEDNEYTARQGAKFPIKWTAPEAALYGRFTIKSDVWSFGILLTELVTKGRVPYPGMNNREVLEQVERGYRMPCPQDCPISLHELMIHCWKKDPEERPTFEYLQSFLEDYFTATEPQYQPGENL
- experimental protocol: phosphorylation enrichment, bacterial display (enrichment ratio); higher = better substrate or ligand; peptides without Tyr show the background
Reported phosphorylation enrichment values are given for each entry in this list.
measurement type: phosphorylation enrichment

{"columns": ["sequence content", "measurement type", "quantitative result"],
 "data": [
  ["SENPKYPEVGD [TMEM43_Y233]", "phosphorylation enrichment", 0.616],
  ["QWLEQYTQAIE [LSP1_Y234]", "phosphorylation enrichment", 0.596],
  ["QNTVDYFDLFG [PTPN11_Y62_G60V_YF]", "phosphorylation enrichment", 0.614]
]}

---

- study target: Grb2 SH2 (UniProt P62993)
- Sequence (P62993 whole entry, looked up): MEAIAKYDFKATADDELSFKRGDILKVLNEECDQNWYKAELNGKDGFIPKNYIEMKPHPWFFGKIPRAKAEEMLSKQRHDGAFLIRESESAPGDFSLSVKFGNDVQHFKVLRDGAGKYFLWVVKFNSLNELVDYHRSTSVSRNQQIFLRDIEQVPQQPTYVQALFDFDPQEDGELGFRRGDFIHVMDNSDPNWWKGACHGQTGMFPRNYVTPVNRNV
- experimental protocol: SH2 binding enrichment of the phosphorylated peptide, bacterial display (enrichment ratio); higher = better substrate or ligand; peptides without Tyr show the background

{"columns": ["sequence content", "SH2 binding enrichment"],
 "data": [
  ["HKGASYAFRLS [PTPRD_Y891_V892A]", 0.891],
  ["RGEKQYLAAPL [ALOX12_Y295]", 0.709],
  ["INNIDYYKNTT [FGFR2_Y656_K659N]", 1.22],
  ["ECIEFYELDKK [PMM2_Y145_R141C]", 1.11],
  ["GGDGSYVSVPS [TNNI3K_Y425]", 0.69],
  ["VTHKEYFIFLE [CAMKV_Y95_R92H]", 1.78],
  ["EAVSIYQFYGQ [CBLC_Y402_H405Y]", 0.821]
]}

---

- study target: Fes (UniProt P07332)
- Sequence (P07332 whole entry, looked up): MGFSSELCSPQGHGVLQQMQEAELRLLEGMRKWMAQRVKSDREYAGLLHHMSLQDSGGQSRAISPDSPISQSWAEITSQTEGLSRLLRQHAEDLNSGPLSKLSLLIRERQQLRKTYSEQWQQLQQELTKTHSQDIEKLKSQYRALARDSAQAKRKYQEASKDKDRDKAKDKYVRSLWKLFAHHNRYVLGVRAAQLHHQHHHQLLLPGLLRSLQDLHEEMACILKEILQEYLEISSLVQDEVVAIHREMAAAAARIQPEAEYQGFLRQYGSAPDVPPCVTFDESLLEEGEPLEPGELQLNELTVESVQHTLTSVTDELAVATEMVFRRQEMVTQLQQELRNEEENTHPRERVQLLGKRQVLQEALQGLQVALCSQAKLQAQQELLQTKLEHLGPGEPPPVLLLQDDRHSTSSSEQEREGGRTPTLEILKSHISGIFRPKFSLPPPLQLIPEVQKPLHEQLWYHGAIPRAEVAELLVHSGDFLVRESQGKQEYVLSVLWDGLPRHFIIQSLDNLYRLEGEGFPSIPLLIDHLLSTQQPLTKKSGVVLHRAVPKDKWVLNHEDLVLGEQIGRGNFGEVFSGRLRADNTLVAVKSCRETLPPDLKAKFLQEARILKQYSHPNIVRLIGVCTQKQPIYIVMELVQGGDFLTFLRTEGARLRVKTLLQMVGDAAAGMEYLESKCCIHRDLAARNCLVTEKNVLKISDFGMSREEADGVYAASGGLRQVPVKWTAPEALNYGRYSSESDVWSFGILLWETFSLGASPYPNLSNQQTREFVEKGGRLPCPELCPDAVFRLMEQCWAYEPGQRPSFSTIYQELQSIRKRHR
- experimental protocol: phosphorylation enrichment, bacterial display (enrichment ratio); higher = better substrate or ligand; peptides without Tyr show the background
measurement type: phosphorylation enrichment

{"columns": ["sequence content", "quantitative result"],
 "data": [
  ["VLRRVYVDFEG [KMT2B_Y1707]", 0.909],
  ["CLAKMYFSAVD [CP_Y539_YF]", 1.26],
  ["KENITYMKSEQ [L1TD1_Y24_R27S]", 0.767],
  ["AFEQQYSPIPR [NOX1_Y373]", 0.707],
  ["LNCIYYKDQTG [RS1_Y166_W163C]", 3.26],
  ["AELVQYFMEHH [PTPN11_Y80_YF]", 1.08],
  ["AAVNGYVFGGG [ECHS1_Y137_A138V]", 0.542],
  ["YKWAVYCIIGR [NUP93_Y391_R388W]", 1.48],
  ["LFRFGYANTSE [SI_Y1233_C1229Y_YF]", 0.937],
  ["EAESWYQTKYE [KRT75_Y342]", 1.21],
  ["FFVVEYRNQKP [MUC17_Y4332_D4334N_YF]", 1.65],
  ["NKFTTYLPWLP [C9orf24_Y126_R129W_YF]", 1.06],
  ["EKKKYYDTKIE [CASP5_Y104]", 1.03],
  ["DKATEYIQYVR [MAX_Y70_M74V]", 0.976],
  ["PPGRSYSPFDF [TNS1_Y793_YF]", 0.81],
  ["RVILRYVNPGN [LAMA3_Y791_T796N]", 2.02],
  ["QKPLDYFRVNL [GALE_Y104_YF]", 1.59],
  ["PQIVNYSPDCI [LDHB_Y128_K127N]", 0.824],
  ["PVKSEYSSIKL [NPC2_Y119_P120S]", 1.06],
  ["VCDSDYSASRW [LRP5_Y1552]", 1.02],
  ["EGWQVYRLGAR [MISP_Y95]", 0.857],
  ["QLAPQYTFAQG [FLNA_Y1761_YF]", 0.564],
  ["LENSTYQYICV [CRB1_Y760_R764C]", 2.41],
  ["NKPTVCGVSPN [ABL1_Y226_Y226C]", 0.919],
  ["PATINYLFEKG [NDUFS8_Y84_P85L]", 0.891],
  ["AIGYEYSEINI [SIGLEC12_Y588]", 0.999],
  ["CGTPTYLAPEV [CHEK2_Y390]", 1.34],
  ["SGAWSYNTSTE [SELE_Y24]", 0.748],
  ["QKKPCYEIRWK [PDGFRB_Y562_R561C]", 1.03],
  ["MGRVKYGAFIN [GLB1_Y485_N484K_YF]", 0.701],
  ["YEEDSYVTRSQ [RET_Y905_K907T]", 1.12],
  ["MKKKIYAMGGG [GAN_Y424]", 0.465],
  ["KGFCGYSFDDI [TMEM230_Y110_R108C_YF]", 1.35],
  ["FGPPQYNMQFS [ERBB2IP_Y977_I979M_YF]", 0.679],
  ["PTATSYNPNLA [GABRA1_Y375_T376N]", 1.34],
  ["LSNFNYEQRGA [API5_Y497_G493S]", 1.51],
  ["MKSIKYMDKEV [CCDC60_Y41_I46V]", 0.554],
  ["YFVVEYRNQKP [MUC17_Y4332_D4334N]", 1.36],
  ["VTAALYGCLYE [BTD_Y536_R538C]", 1.43]
]}

---

- Tested on: c-Abl (mouse)
- experimental protocol: phosphorylation enrichment, bacterial display (enrichment ratio); higher = better substrate or ligand; peptides without Tyr show the background
Reported phosphorylation enrichment values are given for each entry in this list.

{"columns": ["sequence content", "phosphorylation enrichment"],
 "data": [
  ["RPGSGYTNIMQ [PKLR_Y564_R569Q]", 0.549],
  ["AELVQYFMEHH [PTPN11_Y80_YF]", 0.547],
  ["EYGRRYGFSRQ [CCDC93_Y209]", 0.525],
  ["EVVGRYSVHYA [MLH1_Y183_N187Y]", 0.649],
  ["NFGTNYRVGSS [CPO_Y278_K273N_YF]", 0.525],
  ["LLLLFCVVRFC [MPZ_Y177_Y177C_YF]", 0.933],
  ["VKKNRYKDILP [PTPN12_Y64]", 0.874],
  ["EDASEYYENYI [PARP4_Y214_F215Y]", 0.716],
  ["SGIFQYIIAKF [FOXL2_Y83_YF]", 0.84],
  ["CFSSEYHFVGG [CTSC_Y345_Y340C_YF]", 1.19],
  ["LESETYRRLLD [KRT12_Y429_I426S]", 0.778],
  ["NLFIEYPTGSG [IRF2BPL_Y423_K418N]", 0.95],
  ["VVIMLYGVDSR [PKD1_Y3143_G3139V]", 1.04],
  ["ESPGLCGFLNV [BCR_Y910_Y910C]", 0.844]
]}

src = the supplement of paper PMC10065799
